Listing: activity, negative = cell killing of selected compounds
Assay: Drug repurposing screens with cells derived from glioblastoma tumor samples (AID 1345199); also: % is scaled to controls: 0 for no effect and ±100 for the full control effect
Details: GBM patient neurospheres viability, ATP luminescence, 48 h; at 46.1 µM (top of the series); tumour line C
Inconclusive results are not listed.
Reply with just the number (in %).

The examples below pair each entry with its known result.
| compound | activity, negative = cell killing [%] |
| --- | --- |
| CN(c1nccc(=O)[nH]1)C1CCN(c2nc3ccccc3n2Cc2ccc(F)cc2)CC1 | -6.39 |
| Cc1nc2n(c(=O)c1CCN1CCC(c3noc4cc(F)ccc34)CC1)CCCC2 | -9.67 |
| COc1c2occc2cc2ccc(=O)oc12 | -21.4 |
| O=C(NCCO[N+](=O)[O-])c1cccnc1 | -10.1 |
| S=c1nc[nH]c2nc[nH]c12 | -28 |
| C[C@H](Cn1cnc2c(N)ncnc21)OCP(=O)(O)O | -20.5 |
| Nc1ccn([C@@H]2O[C@H](CO)[C@@H](O)C2O)c(=O)n1 (some centres undefined) | -25.6 |
| CNC[C@@H](O)[C@@H](O)[C@H](O)[C@H](O)CO | -4.13 |

Given Nc1ccc(S(N)(=O)=O)cc1 , respond with its activity, negative = cell killing.
10.5

Given CCCCCCCCOc1ccccc1C(=O)Nc1ccc(C(=O)OCC[N+](C)(CC)CC)cc1 , respond with its activity, negative = cell killing.
-98.5

Given CC(=O)Nc1ccc(O)cc1 , respond with its activity, negative = cell killing.
-7.56

Given CCC1=C(C)CN(C(=O)NCCc2ccc(S(=O)(=O)NC(=O)NC3CCC(C)CC3)cc2)C1=O (centres undefined) , respond with its activity, negative = cell killing.
-8.33

Given CCC(C)(Oc1ccc(C2(c3ccc(OC(C)(CC)C(=O)O)cc3)CCCCC2)cc1)C(=O)O (centres undefined) , respond with its activity, negative = cell killing.
-24.8

Given Nc1cc(C(Cl)=C(Cl)Cl)c(S(N)(=O)=O)cc1S(N)(=O)=O , respond with its activity, negative = cell killing.
10.7

Given O=C(O)CCNC(=O)c1ccc(N=Nc2ccc(O)c(C(=O)O)c2)cc1 , respond with its activity, negative = cell killing.
-6.53

Given O=C1CCc2ccc(OCCCCN3CCN(c4cccc(Cl)c4Cl)CC3)cc2N1 , respond with its activity, negative = cell killing.
-16.8

Given O=C(c1ccccc1)c1ccc2n1CCC2C(=O)O (centres undefined) , respond with its activity, negative = cell killing.
-1.4

Given c1ccc2[nH]c(-c3cscn3)nc2c1 , respond with its activity, negative = cell killing.
7.08

Given Cn1c(NCCN(CCO)CCCc2ccc([N+](=O)[O-])cc2)cc(=O)n(C)c1=O , respond with its activity, negative = cell killing.
-1.17

Given O=C(O)c1cn(-c2ccc(F)cc2)c2cc(N3CCNCC3)c(F)cc2c1=O , respond with its activity, negative = cell killing.
0.795

Given C=CCc1cc(OC)c(O)c(C(=O)NCCO)c1 , respond with its activity, negative = cell killing.
2.37

Given CCCc1cc(=O)[nH]c(=S)[nH]1 , respond with its activity, negative = cell killing.
-10.7

Given O=C1c2ccccc2-c2n[nH]c3cccc1c23 , respond with its activity, negative = cell killing.
-13.2

Given CCC[C@@H]1C[C@@H](C(=O)N[C@@H]([C@H]2O[C@H](SC)[C@H](O)[C@@H](O)[C@H]2O)[C@@H](C)O)N(C)C1 , respond with its activity, negative = cell killing.
3.06

Given CC1=C(C(=O)O)N2C(=O)[C@@H](NC(=O)[C@H](N)C3=CCC=CC3)[C@H]2SC1 , respond with its activity, negative = cell killing.
-3.66

Given COC1=C(OC)C(=O)C(CCCCCCCCCCO)=C(C)C1=O , respond with its activity, negative = cell killing.
1.43

Given CNC[C@H](O)c1ccc(O)c(O)c1 , respond with its activity, negative = cell killing.
-9.48

Given Cc1ccc(C)c(OCCCC(C)(C)C(=O)O)c1 , respond with its activity, negative = cell killing.
-8.64

Given CC(=O)NC[C@H]1CN(c2ccc(N3CCOCC3)c(F)c2)C(=O)O1 , respond with its activity, negative = cell killing.
15.8

Given NS(=O)(=O)c1cc(C(=O)O)c(NCc2ccco2)cc1Cl , respond with its activity, negative = cell killing.
5.25

Given COc1ccc(C2(C#N)CCC(C(=O)O)CC2)cc1OC1CCCC1 (centres undefined) , respond with its activity, negative = cell killing.
-18.3

Given COc1cc2nc(N3CCN(C(=O)C4CCCO4)CC3)nc(N)c2cc1OC (centres undefined) , respond with its activity, negative = cell killing.
-17.4

Given O=P(O)(O)C(O)(Cn1ccnc1)P(=O)(O)O , respond with its activity, negative = cell killing.
-7.84
